target: EBOV GP ectodomain residues 1-636 (GPec) (Zaire ebolavirus, strain  …, UniProt Q05320)

BINDER	binding result
5.6.c2633 (antibody, V domains shown) VH: EVQLVQSGGGLVQPGGSLTLSCAASGFTFTDHWIHWVRQAPGKGLEWVANVKPDGSEKYYVDSVKGRFTISRDNAKKSLSLQMNSLRADDTAVYYCARSQLEGLGDLFYYNFGLDVWGQGTTVTVSS VL: EIVMTQSPATLSVSPGERATLSCRASQSVNSNLAWYQQKPGQAPRLLIYGASTRATGIPARFSGRGSGTDFTLTISSLQSEDFALYYCQQYNTWPPLTFGGGTKVEIN	binds
5.6.c2485 (antibody, V domains shown) VH: QVTLKESGPVLVKPTETLTLTCTVSGFSLSTARMGVGWIRQPPGKALEWLAHIFSDDEKSYSTSLKSRLTISKDTSKSQVVLTMTNMDPVDTATYYCARIQSSEWIYYYYGMDVWGQGTTVTVSS VL: DIQMTQSPSSVSASIGDTVTITCRASQDLSYWLAWYQQKPGKAPKLLIYAASSLQSGVPSRFSGSGSGTDFTLTISSLQPEDFATYYCQQAHSFPITFGQGTRLEIK	binds
5.6.c2957 (antibody, V domains shown) VH: QVRMVQSGAEVKKPGSSVKVSCKTSGGTFSTYSISWVRQAPGHGLEWMGRLIPMLGTPNYAQKFQGRLTITADRSTSTAYMELSSLSSEDTAVYYCARDLGTVLTPGDSWGQGTLVTVSS VL: DIQMTQSPSSLSASVGDRVTITCRASQGISNYLAWFQQKPGEAPKSLIYAASSLQSGVPSKFSGSGSGTDFTLTISNLQPEDFATYYCQQYNSYPLTFGGGTKVEIK	binds
